meta.source: the supplement of paper PMC9112550

System: Escherichia coli TOP10
Test: shrunken log2 fold change of peptide-encoding DNA abundance (4.5 h post-induction vs induction); higher = less antimicrobial activity (less host growth inhibition)
Settings: time post-induction: 4.5 h; library: site-saturation at positions 5, 18, 19, 20
# key: entry, value: shrunken log2 fold change
Form field (numeric): enter value without unit.

Please review the entries below; each comes with its answer.
RRIRNRPPRLPRPRPRPVPHPRP
-0.0692
RRIRQRPPRLPRPRPRPVCAPRP
0.118
RRIRIRPPRLPRPRPRPEWSPRP
-0.26
RRIRMRPPRLPRPRPRPMWNPRP
0.0246
RRIRWRPPRLPRPRPRPCFFPRP
0.0878
RRIRSRPPRLPRPRPRPRVSPRP
-0.0241
RRIRRRPPRLPRPRPRPQCAPRP
0.647
RRIRSRPPRLPRPRPRPTILPRP
-0.413
RRIRIRPPRLPRPRPRPQGHPRP
-0.0464
RRIRIRPPRLPRPRPRPFCYPRP
-0.514

Problem: Report measured shrunken log2 fold change; entry is RRIRERPPRLPRPRPRPEIKPRP
Solution: -0.0374

Problem: Report measured shrunken log2 fold change; entry is RRIRVRPPRLPRPRPRPQTNPRP
Solution: -0.0562

Problem: Report measured shrunken log2 fold change; entry is RRIRIRPPRLPRPRPRPPELPRP
Solution: -0.123

Problem: Report measured shrunken log2 fold change; entry is RRIRVRPPRLPRPRPRPMWEPRP
Solution: 0.0553

Problem: Report measured shrunken log2 fold change; entry is RRIRGRPPRLPRPRPRPPQDPRP
Solution: 0.781

###

# key: entry, value: shrunken log2 fold change
System: Escherichia coli TOP10
Assay: shrunken log2 fold change of peptide-encoding DNA abundance (4.5 h post-induction vs induction); higher = less antimicrobial activity (less host growth inhibition)
Conditions: time post-induction: 4.5 h; library: site-saturation at positions 5, 18, 19, 20
Form field (numeric): enter value without unit.

RRIRHRPPRLPRPRPRPAWHPRP
-0.132
RRIRRRPPRLPRPRPRPPSIPRP
-0.212
RRIRVRPPRLPRPRPRPFKGPRP
-0.0313

Problem: State recorded shrunken log2 fold change with Escherichia coli TOP10, entry RRIRERPPRLPRPRPRPPWHPRP , no comment.
Solution: -0.0644

###

Tested on: Escherichia coli TOP10;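 also: peptides expressed intracellularly from a pBAD plasmid library in pooled LB shake-flask culture, induced with 0.3% L-arabinose, DNA abundance read by NGS, three biological replicates, DESeq2 with apeglm shrinkage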
Test: shrunken log2 fold change of peptide-encoding DNA abundance (4.5 h post-induction vs induction); higher = less antimicrobial activity (less host growth inhibition)
Settings: time post-induction: 4.5 h; library: site-saturation at positions 5, 18, 19, 20
// 0 (no) strictly below -0.2 in shrunken log2 fold change; 1 (yes) otherwise

Record excerpt, results attached:
RRIRDRPPRLPRPRPRPCFWPRP
1 (yes)
RRIRARPPRLPRPRPRPHWAPRP
1 (yes)
RRIRIRPPRLPRPRPRPENMPRP
0 (no)
RRIRTRPPRLPRPRPRPLFWPRP
1 (yes)
RRIRNRPPRLPRPRPRPCVEPRP
0 (no)

Problem: Reported shrunken log2 fold change reaches at least -0.2 for RRIRFRPPRLPRPRPRPGHRPRP ?
Solution: 1 (yes)

Problem: Reported shrunken log2 fold change reaches at least -0.2 for RRIRYRPPRLPRPRPRPINAPRP ?
Solution: 0 (no)

Problem: Reported shrunken log2 fold change reaches at least -0.2 for RRIRWRPPRLPRPRPRPGRQPRP ?
Solution: 1 (yes)
